Biological target: RIPK2 (human) (UniProt O43353)
Sequence (O43353 whole entry, looked up): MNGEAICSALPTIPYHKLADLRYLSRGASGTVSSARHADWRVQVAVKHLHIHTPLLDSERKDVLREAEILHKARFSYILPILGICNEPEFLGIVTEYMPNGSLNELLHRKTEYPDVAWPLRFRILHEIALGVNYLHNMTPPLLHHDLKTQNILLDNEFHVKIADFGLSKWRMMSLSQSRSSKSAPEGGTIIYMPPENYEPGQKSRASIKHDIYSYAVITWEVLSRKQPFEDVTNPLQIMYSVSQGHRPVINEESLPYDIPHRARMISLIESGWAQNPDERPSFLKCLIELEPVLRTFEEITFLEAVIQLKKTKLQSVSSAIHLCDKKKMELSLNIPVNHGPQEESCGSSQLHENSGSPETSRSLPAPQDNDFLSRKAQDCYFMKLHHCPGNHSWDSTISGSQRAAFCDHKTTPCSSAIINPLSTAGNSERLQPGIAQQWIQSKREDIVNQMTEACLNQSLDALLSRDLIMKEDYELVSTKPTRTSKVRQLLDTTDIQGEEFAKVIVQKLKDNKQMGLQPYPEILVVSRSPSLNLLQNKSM
Experiment: KINOMEscan competition binding
Settings: compound 10.0 µM
measurement_name: kinase still bound, per cent of control

Use the examples below as a reference point.
- cpd_smiles: "NC(=O)c1ccc(Nc2cc(-c3ccc(F)cc3)[nH]n2)cc1"
  measured_target: "RIPK2 (human) (UniProt O43353)"
  kinase still bound, per cent of control: "no effect (inactive)"
- cpd_smiles: "Nc1ncnc2c1c(-c1cccc(O)c1)cn2C1CCNCC1"
  measured_target: "RIPK2 (human) (UniProt O43353)"
  kinase still bound, per cent of control: "0%"
- cpd_smiles: "Cc1ccc(NC(=O)c2cccc(N3CCCCC3)c2)cc1-c1ccc(C(=O)NCC2CC2)cc1"
  measured_target: "RIPK2 (human) (UniProt O43353)"
  kinase still bound, per cent of control: "no effect (inactive)"
- cpd_smiles: "NC(=O)c1ccc(-c2cc(C(N)=O)c(N)c(-c3ccc(S(N)(=O)=O)cc3)c2)cc1"
  measured_target: "RIPK2 (human) (UniProt O43353)"
  kinase still bound, per cent of control: "no effect (inactive)"
- cpd_smiles: "O=C1Nc2ccccc2/C1=C/c1ccc[nH]1"
  measured_target: "RIPK2 (human) (UniProt O43353)"
  kinase still bound, per cent of control: "no effect (inactive)"

Answer with the recorded kinase still bound, per cent of control for the compound listed here: "Cc1cc(Nc2cc(N3CCN(C)CC3)nc(Sc3ccc(NC(=O)C4CC4)cc3)n2)[nH]n1"
no effect (inactive)

Answer with the recorded kinase still bound, per cent of control for the compound listed here: "CC(=O)c1c(-c2ccncc2)[nH]c(-c2ccncc2)c1C"
no effect (inactive)

Answer with the recorded kinase still bound, per cent of control for the compound listed here: "CCS(=O)(=O)Nc1ccc2c(c1)[C@H](/C(=N/c1ccc(CN3CCCCC3)cc1)c1ccccc1)C(=O)N2"
6.9%

Answer with the recorded kinase still bound, per cent of control for the compound listed here: "Cc1ccc(O)cc1Nc1ccnc(Nc2cccc(C(N)=O)c2)n1"
0%

Answer with the recorded kinase still bound, per cent of control for the compound listed here: "NC(=O)Nc1sc(-c2ccc(F)cc2)cc1C(N)=O"
no effect (inactive)

Answer with the recorded kinase still bound, per cent of control for the compound listed here: "CN(C)c1ccc(-c2cc3ncccc3c(NCCCCN)n2)cc1"
no effect (inactive)

Answer with the recorded kinase still bound, per cent of control for the compound listed here: "Cc1ccc(C(=O)Nc2cccc(C(C)(C)C)c2)cc1-c1ccc(C(=O)NCC2CC2)cc1"
no effect (inactive)

###

Molecular target: UniProt P08922
Sequence (P08922 whole entry, looked up): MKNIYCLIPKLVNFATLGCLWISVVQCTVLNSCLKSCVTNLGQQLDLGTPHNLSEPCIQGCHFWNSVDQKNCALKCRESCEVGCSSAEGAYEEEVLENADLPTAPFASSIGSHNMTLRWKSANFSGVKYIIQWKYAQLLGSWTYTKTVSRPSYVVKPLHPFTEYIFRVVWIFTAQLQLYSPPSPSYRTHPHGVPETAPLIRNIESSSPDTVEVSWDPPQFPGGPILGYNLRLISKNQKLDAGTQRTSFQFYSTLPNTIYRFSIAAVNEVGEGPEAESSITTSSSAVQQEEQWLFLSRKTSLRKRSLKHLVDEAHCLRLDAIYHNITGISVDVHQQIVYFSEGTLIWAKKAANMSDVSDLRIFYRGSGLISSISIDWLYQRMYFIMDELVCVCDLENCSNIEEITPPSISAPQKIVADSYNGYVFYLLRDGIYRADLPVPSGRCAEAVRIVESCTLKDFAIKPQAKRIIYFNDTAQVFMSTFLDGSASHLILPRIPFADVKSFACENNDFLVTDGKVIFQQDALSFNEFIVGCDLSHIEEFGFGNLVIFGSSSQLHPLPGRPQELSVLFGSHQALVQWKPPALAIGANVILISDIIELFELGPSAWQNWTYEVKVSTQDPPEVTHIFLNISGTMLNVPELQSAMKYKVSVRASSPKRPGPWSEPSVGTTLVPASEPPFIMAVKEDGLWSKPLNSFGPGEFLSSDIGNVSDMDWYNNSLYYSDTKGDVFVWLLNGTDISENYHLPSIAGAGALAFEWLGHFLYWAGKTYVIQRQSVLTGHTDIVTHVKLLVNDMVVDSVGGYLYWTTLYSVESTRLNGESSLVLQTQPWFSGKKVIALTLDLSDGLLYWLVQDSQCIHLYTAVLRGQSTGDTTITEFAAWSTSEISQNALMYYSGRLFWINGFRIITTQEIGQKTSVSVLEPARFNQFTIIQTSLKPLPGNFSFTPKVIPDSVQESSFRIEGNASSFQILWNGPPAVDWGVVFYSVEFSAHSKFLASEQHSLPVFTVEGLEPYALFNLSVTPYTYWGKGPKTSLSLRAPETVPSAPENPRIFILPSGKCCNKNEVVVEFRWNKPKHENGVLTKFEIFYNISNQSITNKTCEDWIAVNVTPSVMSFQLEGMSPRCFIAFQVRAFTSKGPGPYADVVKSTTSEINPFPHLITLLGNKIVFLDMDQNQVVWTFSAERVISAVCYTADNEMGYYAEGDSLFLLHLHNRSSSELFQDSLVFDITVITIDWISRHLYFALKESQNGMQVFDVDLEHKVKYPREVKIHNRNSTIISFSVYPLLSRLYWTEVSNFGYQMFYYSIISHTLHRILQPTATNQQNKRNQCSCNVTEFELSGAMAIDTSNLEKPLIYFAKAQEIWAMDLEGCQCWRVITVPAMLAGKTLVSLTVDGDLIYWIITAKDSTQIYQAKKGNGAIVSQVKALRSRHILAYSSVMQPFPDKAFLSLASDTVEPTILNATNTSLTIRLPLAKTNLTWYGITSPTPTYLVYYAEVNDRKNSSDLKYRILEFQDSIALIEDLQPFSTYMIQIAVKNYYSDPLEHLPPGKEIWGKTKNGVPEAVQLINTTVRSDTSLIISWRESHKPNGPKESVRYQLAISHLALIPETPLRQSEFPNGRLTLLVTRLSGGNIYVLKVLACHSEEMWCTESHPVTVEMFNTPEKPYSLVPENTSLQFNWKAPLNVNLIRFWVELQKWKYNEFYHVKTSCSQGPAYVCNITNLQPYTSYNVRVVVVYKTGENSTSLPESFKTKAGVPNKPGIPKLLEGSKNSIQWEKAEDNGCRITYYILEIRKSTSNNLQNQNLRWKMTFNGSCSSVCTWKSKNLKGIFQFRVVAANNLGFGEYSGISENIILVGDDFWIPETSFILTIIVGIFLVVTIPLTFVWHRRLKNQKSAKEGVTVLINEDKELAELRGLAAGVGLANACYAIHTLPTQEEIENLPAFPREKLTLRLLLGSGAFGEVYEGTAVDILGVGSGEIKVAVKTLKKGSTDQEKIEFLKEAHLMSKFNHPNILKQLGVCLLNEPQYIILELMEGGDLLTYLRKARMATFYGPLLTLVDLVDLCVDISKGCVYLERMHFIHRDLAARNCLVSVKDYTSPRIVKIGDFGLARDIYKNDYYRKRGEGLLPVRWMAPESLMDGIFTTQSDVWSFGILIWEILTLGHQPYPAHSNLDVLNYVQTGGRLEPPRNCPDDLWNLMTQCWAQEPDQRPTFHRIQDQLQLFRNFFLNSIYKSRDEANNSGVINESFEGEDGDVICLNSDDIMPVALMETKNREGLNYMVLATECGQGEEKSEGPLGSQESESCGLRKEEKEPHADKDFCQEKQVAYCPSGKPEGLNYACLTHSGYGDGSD
measurement_name: Kd (nM)
Answer with a number only, understood to be in nM.

Answer briefly: Kd recorded on UniProt P08922 for "CCS(=O)(=O)Nc1ccc2c(c1)[C@H](/C(=N/c1ccc(CN3CCCCC3)cc1)c1ccccc1)C(=O)N2"
77

###

Molecular target: EPHA6 (human) (UniProt Q9UF33)
Sequence (Q9UF33 whole entry, looked up): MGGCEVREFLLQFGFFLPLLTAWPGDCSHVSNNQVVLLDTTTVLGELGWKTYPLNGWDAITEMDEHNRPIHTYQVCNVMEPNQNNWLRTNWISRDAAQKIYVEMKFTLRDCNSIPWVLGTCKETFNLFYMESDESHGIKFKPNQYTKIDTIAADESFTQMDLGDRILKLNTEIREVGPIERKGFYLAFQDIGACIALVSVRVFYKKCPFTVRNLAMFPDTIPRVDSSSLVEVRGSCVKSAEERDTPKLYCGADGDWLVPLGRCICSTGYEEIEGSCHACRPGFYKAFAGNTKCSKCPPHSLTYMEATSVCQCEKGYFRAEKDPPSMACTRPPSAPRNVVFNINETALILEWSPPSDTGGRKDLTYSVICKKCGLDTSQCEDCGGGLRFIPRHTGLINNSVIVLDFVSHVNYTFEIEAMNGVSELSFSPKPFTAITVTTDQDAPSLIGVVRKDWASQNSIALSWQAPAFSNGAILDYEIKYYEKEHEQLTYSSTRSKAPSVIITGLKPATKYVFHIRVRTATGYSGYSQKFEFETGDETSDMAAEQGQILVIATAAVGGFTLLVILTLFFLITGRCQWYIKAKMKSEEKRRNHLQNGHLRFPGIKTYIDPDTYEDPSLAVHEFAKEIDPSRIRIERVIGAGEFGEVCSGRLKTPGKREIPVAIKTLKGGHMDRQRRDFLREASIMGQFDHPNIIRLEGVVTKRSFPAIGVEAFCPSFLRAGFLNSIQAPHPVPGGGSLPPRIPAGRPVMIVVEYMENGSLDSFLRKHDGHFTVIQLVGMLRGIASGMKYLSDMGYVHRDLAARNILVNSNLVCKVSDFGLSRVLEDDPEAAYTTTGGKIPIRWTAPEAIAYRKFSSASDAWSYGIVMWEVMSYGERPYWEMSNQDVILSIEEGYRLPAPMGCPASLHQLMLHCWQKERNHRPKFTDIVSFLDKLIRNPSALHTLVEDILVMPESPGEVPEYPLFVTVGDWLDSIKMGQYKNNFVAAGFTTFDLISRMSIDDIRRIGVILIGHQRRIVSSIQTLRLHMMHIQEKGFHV
Experiment: KINOMEscan competition binding
Details: compound 10.0 µM
measurement_name: kinase still bound, per cent of control

Use the examples below as a reference point.
- cpd_smiles: "Cc1ccc(O)cc1Nc1ccnc(Nc2cccc(C(N)=O)c2)n1"
  measurement_name: "kinase still bound, per cent of control"
  val: "0%"
- cpd_smiles: "CC(=O)c1c(-c2ccncc2)[nH]c(-c2ccncc2)c1C"
  measurement_name: "kinase still bound, per cent of control"
  val: "no effect (inactive)"
- cpd_smiles: "c1ccc(-c2n[nH]cc2-c2ccnc3ccccc23)nc1"
  measurement_name: "kinase still bound, per cent of control"
  val: "no effect (inactive)"
- cpd_smiles: "O=C1Nc2ccccc2/C1=C/c1ccc[nH]1"
  measurement_name: "kinase still bound, per cent of control"
  val: "no effect (inactive)"
- cpd_smiles: "CCS(=O)(=O)Nc1ccc2c(c1)[C@H](/C(=N/c1ccc(CN3CCCCC3)cc1)c1ccccc1)C(=O)N2"
  measurement_name: "kinase still bound, per cent of control"
  val: "0%"
- cpd_smiles: "O=C(Nc1n[nH]c2nc(-c3cccc(O)c3)ccc12)C1CC1"
  measurement_name: "kinase still bound, per cent of control"
  val: "no effect (inactive)"
- cpd_smiles: "NC(=O)Nc1sc(-c2ccc(F)cc2)cc1C(N)=O"
  measurement_name: "kinase still bound, per cent of control"
  val: "no effect (inactive)"
- cpd_smiles: "NC(=O)c1ccc(Nc2cc(-c3ccc(F)cc3)[nH]n2)cc1"
  measurement_name: "kinase still bound, per cent of control"
  val: "no effect (inactive)"

Answer with the recorded kinase still bound, per cent of control for the compound listed here: "NC(=O)c1ccc(-c2cc(C(N)=O)c(N)c(-c3ccc(S(N)(=O)=O)cc3)c2)cc1"
no effect (inactive)

Answer with the recorded kinase still bound, per cent of control for the compound listed here: "N#Cc1ccc(-c2cnc3[nH]cc(NC(=O)c4cccnc4)c3c2)cc1"
no effect (inactive)

Answer with the recorded kinase still bound, per cent of control for the compound listed here: "CN(C)c1ccc(-c2cc3ncccc3c(NCCCCN)n2)cc1"
no effect (inactive)

Answer with the recorded kinase still bound, per cent of control for the compound listed here: "Cc1ccc(NC(=O)c2cccc(N3CCCCC3)c2)cc1-c1ccc(C(=O)NCC2CC2)cc1"
no effect (inactive)
